Target: DNA-PK phosphorylation at Serine 2056 (Homo sapiens, UniProt P78527)
Construct: FaDu cells were purchased from ATCC; host or cells: FaDu
Assay: Cellular Assay for Inhibition of DNA-PK Phosphorylation at Serine 2056 in FaDu cells (sandwich ELISA, neocarzinostatin)
Format: cell-based
Conditions: pSer2056 DNA-PK, neocarzinostatin 1 μg/mL, Table 1
reported metric: IC50

# compound, IC50
records = [
    ("CCCS(=O)(=O)NC(=O)c1cnc2cc(N3CCOCC3)nc(O[C@H]3CC[C@@H](n4ccnc4)CC3)c2c1", "10000 to 30000 nM"),
    ("c1cnc2cc(N3CCOCC3)nc(O[C@H]3CC[C@@H](Nc4ncc(OCCN5CCOCC5)cn4)CC3)c2c1", "100 to 1000 nM"),
    ("CN(C)CCOc1cnc(N[C@H]2CC[C@@H](Oc3nc(N4CCOCC4)cc4ncccc34)CC2)nc1", "100 to 1000 nM"),
    ("O=C(O)c1cnc2cc(N3CCOCC3)nc(O[C@H]3CC[C@@H](n4ccnc4)CC3)c2c1", "10000 to 30000 nM"),
    ("O=S1(=O)CCCN1c1cnc2cc(N3CCOCC3)nc(O[C@H]3CC[C@@H](Nc4ncccn4)CC3)c2c1", "1000 to 10000 nM"),
]

Req: Param readout = IC50; param system = DNA-PK phosphorylation at Serine 2056 (Homo sapiens, UniProt P78527); param query = `CS(=O)(=O)NCCOc1cnc(N[C@H]2CC[C@@H](Oc3nc(N4CCOCC4)cc4ncccc34)CC2)nc1` ; response: value
Resp: < 100 nM

Req: Could you do the same for `CN(C)CCOc1cnc(C(=O)N[C@H]2CC[C@@H](Oc3nc(N4CCOCC4)cc4ncccc34)CC2)nc1` , please?
Resp: 1000 to 10000 nM

Req: Please do the same for `CN1CCN(C(=O)COc2cnc(N[C@H]3CC[C@@H](Oc4nc(N5CCOCC5)cc5ncccc45)CC3)nc2)CC1` as well.
Resp: < 100 nM

Req: Then `O=C(COc1cnc(N[C@H]2CC[C@@H](Oc3nc(N4CCOCC4)cc4ncccc34)CC2)nc1)N1CCOCC1` ?
Resp: < 100 nM

Req: `N#CCC(=O)N[C@H]1CC[C@@H](Oc2nc(N3CCOCC3)cc3ncccc23)CC1` , same question.
Resp: 100 to 1000 nM

Req: Another compound to look at: `CN(C)C(=O)Cn1ccc2nc(N[C@H]3CC[C@@H](Oc4nc(N5CCOCC5)cc5ncccc45)CC3)ncc21`
Resp: < 100 nM

Req: And what about the compound `CCOC(=O)c1cnc2cc(N3CCOCC3)nc(O[C@H]3CC[C@@H](n4ccnc4)CC3)c2c1` ?
Resp: 1000 to 10000 nM

Req: Then what about the compound `CN(C)C(=O)Cn1c(=O)n(C2CCOCC2)c2nc(N[C@H]3CC[C@@H](Oc4nc(N5CCOCC5)cc5ncccc45)CC3)ncc21` ?
Resp: < 100 nM

Req: Please give the result for `CC(=O)NC(=O)c1cnc2cc(N3CCOCC3)nc(O[C@H]3CC[C@@H](n4ccnc4)CC3)c2c1` too.
Resp: 100 to 1000 nM

Req: Repeat with `CN(C)C(=O)Cn1cccc1C(=O)N[C@H]1CC[C@@H](Oc2nc(N3CCOCC3)cc3ncccc23)CC1`
Resp: 1000 to 10000 nM
